- Assayed System: DNA topoisomerase 1 (Homo sapiens)
- Sequence (whole entry): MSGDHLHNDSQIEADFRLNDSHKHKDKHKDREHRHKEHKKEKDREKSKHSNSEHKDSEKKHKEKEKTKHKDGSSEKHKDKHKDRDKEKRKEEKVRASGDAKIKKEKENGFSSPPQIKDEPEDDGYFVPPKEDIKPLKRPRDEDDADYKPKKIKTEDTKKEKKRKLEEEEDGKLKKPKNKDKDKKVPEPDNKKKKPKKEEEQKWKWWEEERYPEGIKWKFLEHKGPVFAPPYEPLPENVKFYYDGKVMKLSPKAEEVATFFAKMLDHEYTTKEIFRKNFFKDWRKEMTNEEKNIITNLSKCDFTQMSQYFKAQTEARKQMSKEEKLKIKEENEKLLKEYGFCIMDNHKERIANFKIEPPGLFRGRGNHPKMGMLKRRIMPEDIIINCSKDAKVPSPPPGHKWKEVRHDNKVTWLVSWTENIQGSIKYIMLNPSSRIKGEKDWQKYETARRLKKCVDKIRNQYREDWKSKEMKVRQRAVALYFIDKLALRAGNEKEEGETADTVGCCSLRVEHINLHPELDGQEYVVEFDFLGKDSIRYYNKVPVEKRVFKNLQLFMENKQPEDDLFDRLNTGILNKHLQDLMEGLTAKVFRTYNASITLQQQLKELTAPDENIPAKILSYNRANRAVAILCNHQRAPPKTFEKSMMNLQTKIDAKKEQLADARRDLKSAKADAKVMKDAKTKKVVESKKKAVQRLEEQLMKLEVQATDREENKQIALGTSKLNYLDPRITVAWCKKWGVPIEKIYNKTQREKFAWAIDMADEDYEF
- Assay Info: Topoisomerase I DNA relaxation activity was evaluated by Fluorescence assay using Ethidium Bromide before heat denaturation of pBR322 DNA at concentration 100 uM
- Condition Label: Escherichia coli
Listed below: Change values for each entry.
The figure you give is taken to be in %; do not add the unit.

[
  {
    "Smi": "COC(=O)c1cc(NC(=O)c2cc(NC(=O)c3cc(NC(=O)Cn4cc(C5=C(c6c[nH]c7ccccc67)C(=O)NC5=O)c5ccccc54)cn3C)cn2C)cn1C",
    "Unit Symbol": "%",
    "Change": 15
  }
]

Request: Return reported Change; argument: `CN(C)CCCNC(=O)c1cc(NC(=O)c2cc(NC(=O)c3cc(NC(=O)Cn4cc(C5=C(c6c[nH]c7ccccc67)C(=O)NC5=O)c5ccccc54)cn3C)cn2C)cn1C`
Result: 20

Request: Please give the measured Change for this compound: `COC(=O)c1cc(NC(=O)Cn2cc(C3=C(c4c[nH]c5ccccc45)C(=O)NC3=O)c3ccccc32)cn1C`
Result: 3
